Tested on: Premature termination codon
Assay Text: Induction of read through activity at T-p53 R213X mutant premature termination codon in human HDQ-P1 cells assessed as increase in production of full length p53 protein by MSD assay
Format: cell-based
Measurement Context: filed as activator
Field: EC2. Provide a value for each of the molecules that follow.
Report as a plain number; the unit µM is understood.

q: Entry under review: `Cc1nc(NC(=N)NCCCN(C)[C@@H](C)c2ccccc2)nc2ccccc12` . Reported EC2?
a: 2.2

q: Entry to check: `Cc1nc(NC(=N)NCCCN(C)[C@H](C)c2ccccc2)nc2ccccc12`
a: 1.8

q: Entry to check: `Cc1nc(NC(=N)NCCCN(C)C)nc2cc(F)cc(F)c12`
a: 2.9

q: Entry to check: `Cc1nc(NC(=N)NCCCN2CCOCC2)nc2cc(F)ccc12`
a: 4.7

q: Entry to check: `N=C(NCCCN1CCCC1)Nc1nc2c(c(-c3ccoc3)n1)CCC2`
a: 0.44

q: Entry to check: `Cc1ccc2nc(NC(=N)NCCCN3CCCC3)nc(C)c2c1`
a: 2.3

q: Entry to check: `Cc1nc(NC(=N)NCCCN2CCCC2)nc(-c2ccoc2)c1F`
a: 1.6

q: Entry to check: `Cc1cccc2nc(NC(=N)NC3CCNCC3)nc(C)c12`
a: 1.1

q: Entry to check: `Cc1nc(NC(=N)NCCCN(C)C)nc2cc(F)ccc12`
a: 1.1

q: Entry to check: `Cc1nc(NC(=N)NCCCCN(C)C)nc2cc(F)ccc12`
a: 2.2

q: Entry to check: `Cc1ccc2c(C)nc(NC(=N)NCCCN3CCCC3)nc2c1`
a: 1

Source: ChEMBL document CHEMBL5214943
